test: In vitro enzyme assay to detect hydrolysis of chlorophenol red-beta-D-[…] directly proportional to the number of Toxoplasma stably expressing beta-galactosidase; assay type: functional, organism-based, Toxoplasma gondii; parameters: scale not given: in the data most compounds retested in dose-response had high values; conditions: 50 µM
In all, about 85,000 compounds went through this assay and about 440 (0.52%) showed an effect of 50% or more. For the sample, strong results were picked, then their nearest neighbours and some compounds at random.
value_type: Percent Effect (%)
Quick note: give the figure in %, leave out the unit.

Please review the following examples before continuing.
>  <compound>
NCCC1CSc2ccccc2O1 (stereo not given)

>  <Percent Effect [%]>
65.01

$$$$
>  <compound>
C1CC(NC2COC2)CCO1

>  <Percent Effect [%]>
12.23

$$$$
>  <compound>
CC1CNCCN1c1cccc2cnccc12 (stereo not given)

>  <Percent Effect [%]>
3.081

$$$$
>  <compound>
O=C(N[C@H]1COC[C@@H]1N1CCCCC1)c1cnc[nH]1

>  <Percent Effect [%]>
53.1

$$$$
>  <compound>
CC1CN(C)CCN1Cc1nc(N)nc(N(C)C)n1 (stereo not given)

>  <Percent Effect [%]>
17

$$$$

# query: Percent Effect of entry Cc1cc(CNC(C)Cn2cccn2)on1 (stereo not given)
9.614

Field entry: `NCCc1ccc(C(F)(F)F)cn1`
-0.7951

What do we get for COc1cccc(C(C)N2CCNCC2)c1 (stereo not given) ?
-0.2947
